Data origin, for the record: patent US20260167713A1

# system: T1, recombinant full-length human beta-catenin (human, UniProt P35222 2-781, biotinylated in the ELISA and SPR assays (sites not given); not biotinylated on the Western blots)
# T1 construct: Tags are not described; also called β-catenin; biotinylated beta-catenin
# T1 sequence: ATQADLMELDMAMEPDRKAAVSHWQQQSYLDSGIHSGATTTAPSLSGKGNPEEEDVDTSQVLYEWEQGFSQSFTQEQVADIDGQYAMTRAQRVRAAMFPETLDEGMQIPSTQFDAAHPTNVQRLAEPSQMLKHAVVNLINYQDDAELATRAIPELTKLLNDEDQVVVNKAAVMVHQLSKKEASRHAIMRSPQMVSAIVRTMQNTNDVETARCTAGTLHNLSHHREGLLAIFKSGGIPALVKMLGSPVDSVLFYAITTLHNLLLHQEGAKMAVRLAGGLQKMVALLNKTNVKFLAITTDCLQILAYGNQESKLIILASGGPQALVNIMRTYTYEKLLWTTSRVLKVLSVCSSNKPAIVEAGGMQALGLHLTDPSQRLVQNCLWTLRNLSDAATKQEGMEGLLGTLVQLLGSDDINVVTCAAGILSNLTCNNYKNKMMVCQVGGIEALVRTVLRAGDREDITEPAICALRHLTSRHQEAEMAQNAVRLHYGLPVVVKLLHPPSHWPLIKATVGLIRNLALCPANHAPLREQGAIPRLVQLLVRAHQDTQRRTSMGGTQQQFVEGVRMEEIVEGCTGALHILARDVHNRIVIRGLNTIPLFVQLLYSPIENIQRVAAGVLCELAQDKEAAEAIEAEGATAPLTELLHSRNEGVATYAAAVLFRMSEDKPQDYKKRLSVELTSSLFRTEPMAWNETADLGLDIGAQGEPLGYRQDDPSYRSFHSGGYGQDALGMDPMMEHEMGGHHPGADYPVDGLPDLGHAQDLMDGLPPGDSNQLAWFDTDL
# procedure summary: SPR (Biacore T100), biotinylated beta-catenin captured on streptavidin, VHH-scFc in solution
observation type: kon (M⁻¹ s⁻¹)
# value in M⁻¹ s⁻¹; strip the unit string

>>> val("IBV3-scFc (Fc fusion, not shown: a dimerising Fc or GST; large carriers; small tags and cut ends, Single chain mouse IgG Fc construct, used as transient HEK293 supernatant; also called VH-V3) VHH: QVQLVESGGGLVQPGGSLRLSCAASGTISSNNVMGWYRQGPGKQREFVASVTDSDLANYAASVKGRFTISRDNAKNTVNLQMNSLRPEDTGVYYCRLTIMTYPPTISWGQGTQVTVSS")
38500

Input: Report kon for IBV2-scFc (Fc fusion, not shown: a dimerising Fc or GST; large carriers; small tags and cut ends, Single chain mouse IgG Fc construct, used as transient HEK293 supernatant; also called VH-V2) VHH: QVQLVQSGGGLVQPGGSLRLSCAASGSISSNNVMGWYRQGPGKQREFVASITDSDLANYAASVKGRFTISRDNAKNTVNLQMNSLRPEDTDVYYCRLTMMTYPPIISWGQGTQVTVSS please.
Output: 36900

Input: Report kon for IBS-scFc (Fc fusion, not shown: a dimerising Fc or GST; large carriers; small tags and cut ends, Single chain mouse IgG Fc construct, used as transient HEK293 supernatant; also called VH-S) VHH: QVQLVESGGGLVQAGGSLRLSCAASGVSFSRTSLGWFRQAPGKEREFVSVISWIGGTTYYADSLKGRFTISRDNAKSTVYLQMNSLKPEDTALYYCAISNGVLPRTEGAFASWGQGTQVTVSS please.
Output: 65600
